HCT-15: recorded GI50 for assorted compounds
OBSERVED PROPERTY: GI50 (µM)

- CNC(=O)N1CN(c2ccccc2)C2(CCN(Cc3ccccc3)CC2)C1=O: 15
- COc1cc2c3c(c1OC)C(=O)C(=O)C1=C3N(CCC1)CC2: 27.9
- COc1ccc(C2OC2C(=O)C23CC4CC(CC(C4)C2)C3)cc1 (stereo unspecified): 41.4
- COc1ccc(OC(=O)CC2Cc3cc(OC)c(OC)c(OC)c3-c3ccc(SC)c(=O)cc32)cc1 (stereo unspecified): 0.467
- O=C1/C(=C\c2ccc(O)cc2)CCC/C1=C/c1ccc(Cl)c(Cl)c1: 2.96
- CN(C)c1ccc(NN=C2SC(=N\c3ccccc3)/C(=N/c3ccccc3)S2)cc1: 9.31
- CC1=C(N2CC2)C(=O)c2nc3n(c2C1=O)CCC3OC(=O)CCl (stereo unspecified): 0.0194
- O=C1Sc2sc(=S)sc2SC1c1ccccc1 (stereo unspecified): 19.4
- COc1cc2nc3n(c(=O)c2cc1OC)-c1ccc([N+](=O)[O-])cc1C3=O: 32.4
- CN1C(OCc2ccccc2)c2c(ccc3c2OCO3)C2C=Cc3cc4c(cc3C21)OCO4 (stereo unspecified): 0.597
- O=c1[nH]c2ccc(C(F)(F)F)cc2nc1C(F)(F)F: 27.9
- O=c1[nH]c(-c2ccc(Cl)cc2)cc2ccsc12: 2.26
- CCCC(C)n1c(C)nc2c1C(=O)c1ccccc1C2=O (stereo unspecified): 5.97
- Cc1nc(-c2ccccc2)c(C)n2c1nc1ccccc12: 24.2
- CC(C)C(Cl)CC/C(CBr)=C(\Cl)CCl (stereo unspecified): 2.89
- CCOC(=O)c1nc2ccccc2nc1NCc1cc(OC)c(OC)c(OC)c1: 30.3
- O=C1C=CC(=C(c2ccc(O)cc2)c2ccc(O)cc2)C=C1: 14.4
- C[C@@H]1CC[C@]2(C)C3(C)CC[C@]2(OC3=O)[C@@]12CC(c1ccoc1)OC2=O (stereo partly specified): 31.4
- Cc1cc2c3c([nH]c2c2ccnc(C)c12)CCCC3: 1.86
- COC(=O)c1c(C)cccc1CC1Cc2c(C)cccc2C1=O (stereo unspecified): 25.8
- O=C1C(=O)C(Br)(Br)C(Br)=C1Br: 19.8
- CCN(CC)c1nc(N(C)C)c2cc(OC)ccc2n1: 30.6
- N#Cc1c(N)n(C2OC(CO)C(O)C2O)c2ncnc(N)c12 (stereo unspecified): 0.0277
- CCN(CC)/N=N/c1c(C(N)=O)n[nH]c1C: 63.7
- COc1cc(/C=C/c2nc(N)nnc2C)cc(OC)c1OC: 4.04
